Run Description: AUC (0 to last) in healthy human at 62.5 mg, po administered as single dose coadministered with 100 mg of ritonavir
Assay type: ADME, organism-based
Design: dose 62.5 mg, time 0 - last, route oral
Details: plasma
Readout Type: AUC(0-t) (ng·h/mL)

- Molecule: "CCN1c2ncc(CCOc3cc[n+]([O-])c4ccccc34)cc2C(=O)N(C)c2cccnc21 [BILR 355]"
  Numeric Result: 7480

###

Run Description: Renal clearance in healthy human at 37.5 mg, po administered as single dose coadministered with 100 mg of ritonavir by high-pressure liquid chromatography-tandem mass spectrometry/mass spectrometry method
Type: ADME, organism-based, Kidney
Details: in vivo, read-out: CL_renal (converted)

- Molecule: "CCN1c2ncc(CCOc3cc[n+]([O-])c4ccccc34)cc2C(=O)N(C)c2cccnc21 [BILR 355]"
  Unit Label: "mL/min"
  CL renal: 4.92

###

Run Description: Apparent volume of distribution in terminal phase in healthy human at 25 mg, po administered as single dose
Type: ADME, organism-based
Details: in vivo, read-out: Vz/F

- Given Smiles: "CCN1c2ncc(CCOc3cc[n+]([O-])c4ccccc34)cc2C(=O)N(C)c2cccnc21"
  Unit Label: "L"
  Vd/F: 1040

###

Run Description: Tmax in healthy human at 75 mg, po administered as single dose coadministered with 100 mg of ritonavir
Assay type: ADME, organism-based
Details: in vivo

- Given Smiles: "CCN1c2ncc(CCOc3cc[n+]([O-])c4ccccc34)cc2C(=O)N(C)c2cccnc21"
  Tmax: "1.63 h"

###

Run Description: Apparent volume of distribution in terminal phase in healthy human at 5 mg, po administered as single dose
Type: ADME, organism-based
Details: in vivo, read-out: Vz/F

- Molecule: "CCN1c2ncc(CCOc3cc[n+]([O-])c4ccccc34)cc2C(=O)N(C)c2cccnc21 [BILR 355]"
  Unit Label: "L"
  Vd/F: 956

###

Run Description: Renal clearance in high fat fed healthy human at 50 mg, po administered as single dose coadministered with 100 mg of ritonavir by high-pressure liquid chromatography-tandem mass spectrometry/mass spectrometry method
Assay type: ADME, organism-based, Kidney
Details: in vivo, read-out: CL_renal (converted)

- Given Smiles: "CCN1c2ncc(CCOc3cc[n+]([O-])c4ccccc34)cc2C(=O)N(C)c2cccnc21"
  CL renal: "4.98 mL/min"

###

Run Description: AUC (0 to last) in healthy human at 12.5 mg, po administered as single dose
Type: ADME, organism-based
Set-up: dose 12.5 mg, route oral, time 0 - last
Details: plasma

- Given Smiles: "CCN1c2ncc(CCOc3cc[n+]([O-])c4ccccc34)cc2C(=O)N(C)c2cccnc21"
  AUC(0-t), ng·h/mL: 56.2

###

Run Description: Mean residence time in healthy human at 25 mg, po administered as single dose coadministered with 100 mg of ritonavir
Type: ADME, organism-based
Details: in vivo
Readout Type: MRT (h)

- Given Smiles: "CCN1c2ncc(CCOc3cc[n+]([O-])c4ccccc34)cc2C(=O)N(C)c2cccnc21"
  Readout Type: "MRT"
  Unit Label: "h"
  Numeric Result: 18.1

###

Run Description: Drug excretion in healthy human urine assessed as unchanged drug at 50 mg, po administered as single dose coadministered with 100 mg of ritonavir by high-pressure liquid chromatography-tandem mass spectrometry/mass spectrometry method
Assay type: ADME, organism-based
Details: read-out: Drug uptake
Readout Type: dose excreted (%)

- Molecule: "CCN1c2ncc(CCOc3cc[n+]([O-])c4ccccc34)cc2C(=O)N(C)c2cccnc21 [BILR 355]"
  Readout Type: "dose excreted"
  Numeric Result: 3.58
